Recorded IC50 values for a group of compounds are listed next.
# target entity: TARP γ8 dependent AMPA receptor (GRIA1o-CACNG8 fusion construct) (Homo sapiens (Human), UniProt P42261+Q8WXS5)
# Sequence (P42261 other isoform, or with tags, fused parts or gaps): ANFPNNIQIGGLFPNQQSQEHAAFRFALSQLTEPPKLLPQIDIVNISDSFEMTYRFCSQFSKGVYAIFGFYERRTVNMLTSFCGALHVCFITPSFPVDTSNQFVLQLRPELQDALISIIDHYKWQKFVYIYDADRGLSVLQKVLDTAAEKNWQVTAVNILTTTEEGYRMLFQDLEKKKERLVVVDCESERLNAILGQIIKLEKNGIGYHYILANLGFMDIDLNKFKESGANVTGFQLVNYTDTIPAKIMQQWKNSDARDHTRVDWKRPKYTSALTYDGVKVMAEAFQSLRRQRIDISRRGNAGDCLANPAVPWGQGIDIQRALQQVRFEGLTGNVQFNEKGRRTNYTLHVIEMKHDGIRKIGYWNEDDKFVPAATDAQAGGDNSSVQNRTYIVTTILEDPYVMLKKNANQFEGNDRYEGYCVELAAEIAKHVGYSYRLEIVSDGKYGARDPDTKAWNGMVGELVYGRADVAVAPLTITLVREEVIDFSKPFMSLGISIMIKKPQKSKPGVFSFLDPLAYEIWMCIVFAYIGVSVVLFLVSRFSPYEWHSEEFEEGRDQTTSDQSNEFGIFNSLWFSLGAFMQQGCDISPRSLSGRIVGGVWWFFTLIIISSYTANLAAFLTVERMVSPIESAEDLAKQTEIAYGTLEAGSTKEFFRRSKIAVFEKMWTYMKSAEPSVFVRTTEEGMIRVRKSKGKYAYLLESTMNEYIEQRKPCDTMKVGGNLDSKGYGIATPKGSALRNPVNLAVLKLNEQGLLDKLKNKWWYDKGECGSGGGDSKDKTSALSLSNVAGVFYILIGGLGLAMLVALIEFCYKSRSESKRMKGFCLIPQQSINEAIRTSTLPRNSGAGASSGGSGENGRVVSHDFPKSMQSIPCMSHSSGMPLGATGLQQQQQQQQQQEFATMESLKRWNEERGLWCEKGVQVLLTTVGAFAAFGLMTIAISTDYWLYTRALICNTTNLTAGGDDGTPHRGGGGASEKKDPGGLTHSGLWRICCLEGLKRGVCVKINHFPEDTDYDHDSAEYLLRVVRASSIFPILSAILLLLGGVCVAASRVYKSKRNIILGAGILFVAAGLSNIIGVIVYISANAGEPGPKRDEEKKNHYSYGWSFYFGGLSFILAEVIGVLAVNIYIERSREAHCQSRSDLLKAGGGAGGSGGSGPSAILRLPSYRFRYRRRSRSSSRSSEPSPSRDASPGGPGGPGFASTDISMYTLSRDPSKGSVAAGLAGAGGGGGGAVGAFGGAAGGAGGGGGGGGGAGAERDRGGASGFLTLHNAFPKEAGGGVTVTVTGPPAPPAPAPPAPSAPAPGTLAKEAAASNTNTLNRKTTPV
# assay remarks: Calcium flux assay (FLIPR), inhibition of glutamate response of GluA1o-γ8 channel
# condition set: HEK293 cells stably expressing GRIA1o-CACNG8 fusion; calcium flux after 15 μM glutamate; negative log of the IC50 in molar
Answer format: numeric, nM implied, no suffix.

compound | quantitative readout
CC(C)c1nc2ccc(C(F)(F)F)c(-c3cc(Cl)c4[nH]ncc4c3)n2n1 [Example 36] | 0.0794
CCc1nc2ccc(C(F)F)c(-c3cc(C)c4c(c3)CC(=O)N4)n2n1 [Example 47] | 3.98
Cc1cc(-c2c(-c3ccc(F)cc3)ccc3nc(C(F)(F)F)nn23)cc2c1NC(=O)C2 [Example 57] | 0.0631
CCc1nc2ccc(C(F)F)c(-c3cc(C)c4[nH]ncc4c3)n2n1 [Example 45] | 1.26
FC(F)c1nc2ccc(C(F)(F)F)c(-c3cc(C(F)(F)F)c4[nH]ncc4c3)n2n1 [Example 11] | 0.158

# lookup: IC50 of CCc1cc(C(F)F)c(-c2cc(C)c3[nH]ncc3c2)n2nc(C3CC3)nc12 [Example 94] 0.398

I am curious: what IC50 value has been reported for CCc1nc2c(C)cc(C(F)(F)F)c(-c3cc4c(c(C(F)(F)F)c3)NC(=O)C4)n2n1 [Example 102] ? 1.58

I'd like to know its IC50. The compound in question is COc1ccc2nc(C(F)F)nn2c1-c1cc(C)c2[nH]ncc2c1 [Example 14] 5.01

Recorded IC50 of CC(C)c1cc2ccc(C(F)(F)F)c(-c3cc(Cl)c4[nH]ncc4c3)n2n1 [Example 73] , please. 0.01

Entry CC(C)c1nc2c(F)cc(C(F)(F)F)c(-c3cc(Cl)c4[nH]ncc4c3)n2n1 [Example 34] : reported IC50 = ? 0.316

May I ask what IC50 has been recorded for Cc1nc2ccc(C(F)(F)F)c(-c3cc(C)c4[nH]ncc4c3)n2n1 [Example 22] ? 12.6

I would be grateful if you could share the reported IC50 for CCCc1nc2c(Cl)cc(C(F)(F)F)c(-c3cc(Cl)c4[nH]ncc4c3)n2n1 [Example 96] . 0.398

GET /values?readout=IC50&item= Cc1cc(-c2c(C(F)F)ccc3nc(C4CC4)nn23)cc2cn[nH]c12 [Example 49] 0.794

Form field: reported IC50 of Cc1cc(-c2c(C(F)(F)F)ccc3cc(C(C)C)nn23)cc2cn[nH]c12 [Example 74] 0.0794

Which measured IC50 value corresponds to Cc1cc(-c2c(C(F)F)cc(C)c3nc(C(F)(F)F)nn23)cc2cn[nH]c12 [Example 111] ? 0.794

IC50 for COc1ccc2nc(C(F)(F)F)nn2c1-c1cc(C)c2[nH]ncc2c1 [Example 51] ? 5.01

Please look up its IC50: Cc1nc2ccc(-c3ccc(F)cc3)c(-c3cc(C)c4[nH]ncc4c3)n2n1 [Example 60] 1.26
